All figures here come from patent US9296741B2.

Test: Rat liver microsome stability assay
Format: in vitro ADME
Settings: rat liver microsomes (male Sprague-Dawley), 0.5 μM test compound, 0.25 mg/mL microsomal protein, pH 7.4, 37° C.; read-out: Stability in rat liver microsomes (t1/2 in minutes)
Here the recorded log10 half-life at 0.5 μM is given for each entry.
Value Kind: log10 half-life at 0.5 μM (log10 of the value in min)

- Cn1nc(-c2cc(N)ccc2Oc2ccc(F)cc2F)c2cc[nH]c2c1=O: 0.30
- Cn1cc(-c2cc(C(=O)NC3CCS(=O)(=O)C3)ccc2Oc2ccccc2)c2cc[nH]c2c1=O (stereo not drawn): 1.04
- Cn1cc(-c2cc(NC(=O)CC(F)(F)F)ccc2Oc2ccc(F)cc2F)c2cc[nH]c2c1=O: 1.40
- COc1ccc(NC(=O)c2ccc(Oc3ccc(F)cc3F)c(-c3cn(C)c(=O)c4[nH]ccc34)c2)c(OC)n1: 1.56
- CCS(=O)(=O)Nc1ccc(Oc2ccc(C(N)=O)cc2)c(-c2cn(C)c(=O)c3[nH]ccc23)c1: 1.96
- CCS(=O)(=O)c1ccc(OC2CCN(C(=O)OC(C)(C)C)CC2)c(-c2cn(C)c(=O)c3[nH]ccc23)c1: 1.51
- Cn1cc(-c2cc(S(C)(=O)=O)ccc2Oc2ccc3ncccc3c2)c2cc[nH]c2c1=O: 1.61
- CCS(=O)(=O)Nc1ccc(OCC(C)(C)C)c(-c2cn(C)c(=O)c3[nH]ccc23)c1: 1.28
- Cn1cc(-c2cc(S(C)(=O)=O)ccc2Oc2cc(F)c(F)c(F)c2)c2cc[nH]c2c1=O: 1.58
- Cn1cc(-c2cc(S(=O)(=O)N3CCc4ccccc43)ccc2Oc2ccc(F)cc2F)c2cc[nH]c2c1=O: 0.30
